# Experimental System: D(2) dopamine receptor (Rattus norvegicus)
# Sequence (P61169 whole entry): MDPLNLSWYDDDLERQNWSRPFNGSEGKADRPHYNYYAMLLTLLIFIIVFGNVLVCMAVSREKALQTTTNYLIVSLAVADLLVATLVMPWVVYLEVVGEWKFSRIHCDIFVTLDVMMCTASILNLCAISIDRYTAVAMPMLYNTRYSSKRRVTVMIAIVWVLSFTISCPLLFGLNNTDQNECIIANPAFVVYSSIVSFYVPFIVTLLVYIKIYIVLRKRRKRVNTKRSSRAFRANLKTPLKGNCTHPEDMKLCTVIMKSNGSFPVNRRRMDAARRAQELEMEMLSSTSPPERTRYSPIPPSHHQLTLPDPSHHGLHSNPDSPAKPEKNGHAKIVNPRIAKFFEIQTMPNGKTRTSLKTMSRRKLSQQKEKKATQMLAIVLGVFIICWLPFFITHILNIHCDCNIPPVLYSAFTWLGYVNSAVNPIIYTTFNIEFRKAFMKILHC
# Assay Explanation: Displacement of [3H]spiperone from rat D2 receptor expressed in HEK293 cells
Measured Parameter: pKi
One number for each entry, as −log10 of the molar value.

These recorded examples may help you get a feel for the data.
CCCN(CCN1CCN(c2ccccn2)CC1)C1CCc2ccc(O)cc2C1 (stereo not drawn): 6.99
CCCN(CCN1CCN(c2ccncc2)CC1)C1CCc2ccc(O)cc2C1 (stereo not drawn): 7.17

Lab note: next compound to report on.
# input Recorded pKi for CCCN(CCN1CCN(c2ccc(-c3ccccc3)cc2)CC1)C1CCc2ccc(O)cc2C1 (stereo in doubt; 8a) , please?
# output 7.19
